Origin of the recorded values: paper PMC6832239

Assay: Viability of fibroblast cells, MTT assay
Assay type: cell-based, Human
Settings: human, primary dermal fibroblast cells
Description: Viability of fibroblast cells was examined with the use of the MTT assay. MTT, a yellow tetrazole, is reduced to purple formazan only in living cells. Absorbance of the coloured solution was measured by a spectrophotometer. […] Toxicity of the tested substances was determined using an MTT [3-(4,5-dimethylthiazol-2-yl)-2,5-diphenyltetrazolium bromide)] assay. […] The absorbance of converted dye in living cells was measured at a wavelength of 570 nm. […]
Measured Endpoint: viability at 24 h, 1 µmol/L
Note to self: number, then unit, no commentary.

Query block: Report viability at 24 h, 1 µmol/L for C[C@@H](O)[C@H](NC(=O)[C@H](CCCCN)NC(=O)CCCCC1CCSS1)C(=O)N[C@H](C(=O)N[C@@H](CCCNC(=N)N)C(=O)N[C@@H](CO)C(N)=O)[C@@H](C)O (mixture of isomers) [Peptide 15, Lip-Lys-Thr-Thr-Arg-Ser-NH2] please.
Result block: 112%

###

Test: Viability of fibroblast cells, MTT assay
Assay type: cell-based, Human
Settings: human, primary dermal fibroblast cells; 1 µmol/L, 24 h, MTT; ± 2; read-out: Viability of fibroblast cells
Measured Endpoint: viability at 24 h, 1 µmol/L (%)
Only the number, expressed in %, is required.

Consider the reported viability at 24 h, 1 µmol/L for these substances:
Substance | Measure Unit | viability at 24 h, 1 µmol/L
H-KTTKS-OH [Peptide 1, H-Lys-Thr-Thr-Lys-Ser-OH, reference compound] | % | 95
Ac-KTTRS-NH2 [Peptide 14, Ac-Lys-Thr-Thr-Arg-Ser-NH2] | % | 112

Now, please, on to the next substance.
Query block: // returns reported viability at 24 h, 1 µmol/L for input Ac-KTTRS-OH [Peptide 10, Ac-Lys-Thr-Thr-Arg-Ser-OH]
Result block: 104

###

Assay: Viability of fibroblast cells, MTT assay
Format: cell-based, Human
Conditions: human, primary dermal fibroblast cells; 10 µmol/L, 24 h, MTT; ± 2; read-out: Viability of fibroblast cells
Residues, ends and D or L forms follow the SMILES beside them.
Measured Endpoint: viability at 24 h, 10 µmol/L (%)
Use % as the unit, but write only the number.

Worked cases, viability at 24 h, 10 µmol/L given:
Molecule | Measure Unit | viability at 24 h, 10 µmol/L
C[C@@H](O)[C@H](NC(=O)[C@H](CCCNC(=N)N)NC(=O)CCCCC1CCSS1)C(=O)N[C@H](C(=O)N[C@@H](CCCCN)C(=O)N[C@@H](CO)C(N)=O)[C@@H](C)O (mixture of isomers) [Peptide 31, Lip-Arg-Thr-Thr-Lys-Ser- NH2] | % | 112
CCCCCCCCCCCCCCCC(=O)N[C@@H](CCCCN)C(=O)N[C@H](C(=O)N[C@H](C(=O)N[C@@H](CCCNC(=N)N)C(=O)N[C@@H](CO)C(=O)O)[C@@H](C)O)[C@@H](C)O [Peptide 12, Pal-Lys-Thr-Thr-Arg-Ser-OH] (HELM PEPTIDE1{[CCCCCCCCCCCCCCCC(=O)[*:2]].K.T.T.R.S}$$$$V2.0) | % | 98

Query block: Need viability at 24 h, 10 µmol/L, item CCCCCCCCCCCCCCCC(=O)N[C@@H](CCCNC(=N)N)C(=O)N[C@H](C(=O)N[C@H](C(=O)N[C@@H](CCCCN)C(=O)N[C@@H](CO)C(=O)O)[C@@H](C)O)[C@@H](C)O [Peptide 28, Pal-Arg-Thr-Thr-Lys-Ser-OH] (HELM PEPTIDE1{[CCCCCCCCCCCCCCCC(=O)[*:2]].R.T.T.K.S}$$$$V2.0)
Result block: 103

Query block: // repeat for CCCCCCCCCCCCCCCC(=O)N[C@@H](CCCNC(=N)N)C(=O)N[C@H](C(=O)N[C@H](C(=O)N[C@@H](CCCNC(=N)N)C(=O)N[C@@H](CO)C(=O)O)[C@@H](C)O)[C@@H](C)O [Peptide 20, Pal-Arg-Thr-Thr-Arg-Ser-OH] (HELM PEPTIDE1{[CCCCCCCCCCCCCCCC(=O)[*:2]].R.T.T.R.S}$$$$V2.0) and report
Result block: 90

Query block: Would you kindly repeat that for CCCCCCCCCCCCCCCC(=O)N[C@@H](CCCNC(=N)N)C(=O)N[C@H](C(=O)N[C@H](C(=O)N[C@@H](CCCCN)C(=O)N[C@@H](CO)C(N)=O)[C@@H](C)O)[C@@H](C)O [Peptide 32, Pal-Arg-Thr-Thr-Lys-Ser- NH2] (HELM PEPTIDE1{[CCCCCCCCCCCCCCCC(=O)[*:2]].R.T.T.K.S.[am]}$$$$V2.0) ?
Result block: 113

###

Test: Viability of fibroblast cells, MTT assay
Format: cell-based, Human
Conditions: human, primary dermal fibroblast cells; 100 µmol/L, 24 h, MTT; ± 2; read-out: Viability of fibroblast cells
Each item that follows carries a reported viability at 24 h, 100 µmol/L.
Write down the numeric answer in % and omit the unit.

Substance | Measured Endpoint | Measure Unit | Number
H-RTTKS-OH [Peptide 25, H-Arg-Thr-Thr-Lys-Ser-OH] | viability at 24 h, 100 µmol/L | % | 109
H-KTTKS-NH2 [Peptide 5, H-Lys-Thr-Thr-Lys-Ser-NH2] | viability at 24 h, 100 µmol/L | % | 100
Ac-RTTKS-OH [Peptide 26, Ac-Arg-Thr-Thr-Lys-Ser-OH] | viability at 24 h, 100 µmol/L | % | 150
H-RTTRS-OH [Peptide 17, H-Arg-Thr-Thr-Arg-Ser-OH] | viability at 24 h, 100 µmol/L | % | 115
H-KTTRS-OH [Peptide 9, H-Lys-Thr-Thr-Arg-Ser-OH] | viability at 24 h, 100 µmol/L | % | 101

Query block: Bench note: what viability at 24 h, 100 µmol/L did Ac-KTTRS-NH2 [Peptide 14, Ac-Lys-Thr-Thr-Arg-Ser-NH2] show?
Result block: 150

Query block: Again, but for Ac-RTTRS-OH [Peptide 18, Ac-Arg-Thr-Thr-Arg-Ser-OH]
Result block: 107

###

Experiment: Viability of fibroblast cells, MTT assay
Assay type: cell-based, Human
Conditions: human, primary dermal fibroblast cells; 10 µmol/L, 24 h, MTT; ± 2; read-out: Viability of fibroblast cells
Measured Endpoint: viability at 24 h, 10 µmol/L (%)
Note: unit % is implicit; provide only the numeric part.

# count of solved cases: 4
Substance | Measure Unit | Number
H-KTTKS-NH2 [Peptide 5, H-Lys-Thr-Thr-Lys-Ser-NH2] | % | 91
H-RTTRS-OH [Peptide 17, H-Arg-Thr-Thr-Arg-Ser-OH] | % | 99
H-RTTRS-NH2 [Peptide 21, H-Arg-Thr-Thr-Arg-Ser-NH2] | % | 94
Ac-KTTRS-OH [Peptide 10, Ac-Lys-Thr-Thr-Arg-Ser-OH] | % | 100

Query block: Give the measured viability at 24 h, 10 µmol/L of H-KTTRS-OH [Peptide 9, H-Lys-Thr-Thr-Arg-Ser-OH] .
Result block: 103

###

Biological target: thrombin (Bos taurus)
Construct: purchased Lubelska Wytwórnia Szczepionek (Lublin, Poland)
Experiment: Amidolytic activity of thrombin (chromogenic substrate H-D-Phe-Pip-Arg-pNA)
Type: biochemical
Settings: amidolytic activity; Tris pH 8.4, 37 °C; IC50 by extrapolation using a linear plot; error 5%; read-out: IC50 Thrombin
Protocol: The determination of amidolytic activity was performed as previously described by Okada. A detailed description of the method is given below: 0.2 mL of the examined peptides (0.15 M NaCl as contro), a buffer, and 0.1 mL of enzyme solution were mixed. The final peptide concentrations were: 0.2 mM, 2 mM, and 20 mM. The mixture was incubated at 37 °C for 3 min; then the synthetic substrate solution was added in the same buffer. […] IC50 was calculated mathematically by extrapolation using a linear plot.
Measured Endpoint: pIC50
Just the number, please; pIC50 means minus log10 of the concentration in mol/L.

Query block: Fill blank: measured pIC50 of the compound C[C@@H](O)[C@H](NC(=O)[C@H](CCCCN)NC(=O)CCCCC1CCSS1)C(=O)N[C@H](C(=O)N[C@@H](CCCNC(=N)N)C(=O)N[C@@H](CO)C(=O)O)[C@@H](C)O (mixture of isomers) [Peptide 11, Lip-Lys-Thr-Thr-Arg-Ser-OH] is ____.
Result block: 1.96

###

# Lookup of reported viability at 24 h, 10 µmol/L keyed by entry
Assay: Viability of fibroblast cells, MTT assay
Type: cell-based, Human
Conditions: human, primary dermal fibroblast cells; 10 µmol/L, 24 h, MTT; ± 2; read-out: Viability of fibroblast cells
Give just the numeric value; % need not be written.

The following substances have reported results that may help.
Substance | Measure Unit | viability at 24 h, 10 µmol/L
Ac-RTTKS-NH2 [Peptide 30, Ac-Arg-Thr-Thr-Lys-Ser- NH2] | % | 105
Ac-KTTRS-NH2 [Peptide 14, Ac-Lys-Thr-Thr-Arg-Ser-NH2] | % | 135
Ac-KTTKS-OH [Peptide 2, Ac-Lys-Thr-Thr-Lys-Ser-OH] | % | 88

Query block: I am curious: what viability at 24 h, 10 µmol/L value has been reported for Ac-KTTKS-NH2 [Peptide 6, Ac-Lys-Thr-Thr-Lys-Ser-NH2] ?
Result block: 88

Query block: // query: Ac-RTTKS-OH [Peptide 26, Ac-Arg-Thr-Thr-Lys-Ser-OH]
Result block: 137
